# reported log10(CC50 at 24 h); entries follow
Assay: Compound toxicity assay: inhibition of HeLa cell translation (3H-leucine incorporation)
Assay type: cell-based
Details: human; Table II; HeLa cells; read-out: Cytotoxicity 3H-LEU assay IC50
Field: value | Transform: log10 | Quantity: CC50 at 24 h | Unit: µg/mL

Previously resolved entries follow.
COc1c(SC)c(=O)n(Cc2ccc(O[Si](C)(C)C(C)(C)C)cc2)c2cc(C)c(C)cc12 :: 0.26
CCCCCCn1c(=O)c(C=NOC)c(OC)c2cc(C)ccc21 :: 1.43
CCCCCCn1c(=O)c(C2NCCS2)c(OC)c2ccccc21 (stereo not drawn) :: 1.51
CCCCCCn1c(=O)c(C2NCCS2)c(OC)c2cc(C)ccc21 (stereo not drawn) :: 0.48
CCOC(=O)c1c(OC)c2cc(C)ccc2n(Cc2ccccc2)c1=O :: 1.57
CCCCCCn1c(=O)c(Cn2cnnc2)c(OC)c2cc(C)ccc21 :: 1.51
CCCCCCn1c(=O)c(Cn2ncnn2)c(OC)c2ccccc21 :: 0.85

Kindly review the next compound as well.
# lookup: log10(CC50 at 24 h) of CCCCCCn1c(=O)c(C=NO)c(OC)c2cc(C)ccc21
2.00
